test: ATG_ISRE_CIS: Attagene CIS-FACTORIAL HepG2 Assay for human Interferon Regulatory Factor 1 (IRF1) binding to an Interferon-Stimulated Response Element (ISRE) (AID 2282948); settings: HepG2 ISRE cis-reporter (Attagene), mRNA transcription readout; actives raise or lower the signal
Calls of active or inactive are those of the source. How the source made its calls: active means hit-call score of the fitted dose curve at least 0.9, where 1 is the maximum; inactive means score below 0.9.

| compound | outcome |
| --- | --- |
| CC(=O)C(C)C | inactive |
| CC(CC=O)CC(C)(C)C (stereo not given) | inactive |
| C[Si](C)(C)N[Si](C)(C)C | inactive |
| CC(C)(CO)C(O)C(=O)NCCCO (stereo not given) | inactive |
| CCCCC(CC)COS(=O)(=O)O (stereo not given) | inactive |
| COC(=O)C=Cc1ccccc1 | inactive |
| CCCCCCCOC(=O)c1ccc(O)cc1 | inactive |
| CCC(C)C(=O)OCCc1ccccc1 (stereo not given) | inactive |
| CCCCCCCCC(CO)CCCCCC (stereo not given) | inactive |
| CC1(C)C(=O)N(CO)C(=O)N1CO | inactive |
| c1ccc2sc(SSN3CCOCC3)nc2c1 | inactive |
| CC(C)COC(=O)CC(C(=O)OCC(C)C)S(=O)(=O)O (stereo not given) | inactive |
| CCCC1CCCC(=O)O1 (stereo not given) | inactive |
| C=CC(=O)O[C@H]1C[C@@H]2CC[C@@]1(C)C2(C)C | inactive |
| CC=CC(=O)OCC(C)C | inactive |
